biological target: B-Raf (V600E)-kinase (Homo sapiens (Human), UniProt P15056, V600E); assay: Kinase test B-Raf (V600E); details: 1 h preincubation, 250 μM ATP
Sequence (P15056 whole entry V600E): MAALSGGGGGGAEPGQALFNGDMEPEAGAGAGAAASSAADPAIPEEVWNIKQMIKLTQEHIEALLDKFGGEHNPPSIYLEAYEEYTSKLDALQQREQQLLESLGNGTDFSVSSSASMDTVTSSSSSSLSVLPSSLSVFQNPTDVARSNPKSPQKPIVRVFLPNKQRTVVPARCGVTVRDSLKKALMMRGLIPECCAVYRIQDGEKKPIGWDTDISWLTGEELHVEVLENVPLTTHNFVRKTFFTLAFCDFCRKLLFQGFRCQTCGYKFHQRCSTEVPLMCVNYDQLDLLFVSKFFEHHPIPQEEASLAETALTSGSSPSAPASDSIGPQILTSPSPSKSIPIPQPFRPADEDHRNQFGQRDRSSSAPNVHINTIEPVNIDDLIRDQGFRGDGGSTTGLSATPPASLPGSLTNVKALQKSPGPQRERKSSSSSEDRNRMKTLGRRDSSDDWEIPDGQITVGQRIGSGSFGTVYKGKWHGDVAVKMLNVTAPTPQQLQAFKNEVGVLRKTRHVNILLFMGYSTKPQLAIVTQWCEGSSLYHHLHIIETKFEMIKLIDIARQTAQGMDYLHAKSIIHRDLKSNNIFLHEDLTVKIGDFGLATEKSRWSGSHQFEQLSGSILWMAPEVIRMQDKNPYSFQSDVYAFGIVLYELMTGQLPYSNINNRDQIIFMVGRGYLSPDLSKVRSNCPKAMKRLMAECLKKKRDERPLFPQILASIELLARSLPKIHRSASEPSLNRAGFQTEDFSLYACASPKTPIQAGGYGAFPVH
measured_property: IC50

[[record]]
molecule = "Cc1ccc(NC(=O)c2cc(C(C)(C)C)on2)cc1-n1cc(-c2cncc(N3CCN(C)CC3)c2)nn1"
tested_target = "B-Raf (V600E)-kinase (Homo sapiens (Human), UniProt P15056, V600E)"
value_reported = "5 nM"

[[record]]
molecule = "Cc1ccc(C(=O)Nc2cc(C(F)(F)F)ccn2)cc1-n1cc(-c2cncc(N3CC[C@H](N(C)C)C3)c2)nn1"
tested_target = "B-Raf (V600E)-kinase (Homo sapiens (Human), UniProt P15056, V600E)"
value_reported = "9 nM"

[[record]]
molecule = "Cc1ccc(C(=O)Nc2cc(C(C)(C)C)on2)cc1-n1cc(-c2cncc(NC(C)C)c2)nn1"
tested_target = "B-Raf (V600E)-kinase (Homo sapiens (Human), UniProt P15056, V600E)"
value_reported = "17 nM"

[[record]]
molecule = "Cc1ccc(C(=O)Nc2cc(C(F)(F)F)ccn2)cc1-n1cc(-c2cncc(NCC3CCCO3)c2)nn1 (stereo not shown)"
tested_target = "B-Raf (V600E)-kinase (Homo sapiens (Human), UniProt P15056, V600E)"
value_reported = "11 nM"

[[record]]
molecule = "Cc1ccc(NC(=O)c2cc(CN3CCN(C)CC3)c(C(C)(C)C)o2)cc1-n1cc(-c2cncc(N3CCOCC3)c2)nn1"
tested_target = "B-Raf (V600E)-kinase (Homo sapiens (Human), UniProt P15056, V600E)"
value_reported = "16 nM"

[[record]]
molecule = "COCCN1C(C)CN(c2cncc(-c3cn(-c4cc(C(=O)Nc5cc(C(C)(C)C)on5)ccc4C)nn3)c2)CC1C (stereo not shown)"
tested_target = "B-Raf (V600E)-kinase (Homo sapiens (Human), UniProt P15056, V600E)"
value_reported = "29 nM"

[[record]]
molecule = "CCOCCN1CCN(c2cncc(-c3cn(-c4cc(NC(=O)c5ccc(C(C)(C)C)o5)ccc4C)nn3)c2)CC1"
tested_target = "B-Raf (V600E)-kinase (Homo sapiens (Human), UniProt P15056, V600E)"
value_reported = "7 nM"

